Experiment: in vitro
Conditions: human

| compound | CC50 / µM |
| --- | --- |
| CC1(O)[C@@H](O)[C@@H](CO)O[C@H]1n1cnc2c(N)ncnc21 (stereo partly drawn) [β-D-2′-CH3-riboA, 2′-C-methylriboadenine] | 6.6 |
| C[C@@]1(n2cnc3c(N)ncnc32)O[C@H](CO)[C@H](O)C1O (stereo partly drawn) [β-D-1′-CH3-riboA, 1′-C-methylriboadenine] | 18 |

###

Assay: Bioavailability assay in Cynomolgus monkeys
Assay type: in vivo, Cynomolgus monkey
Conditions: cynomolgus monkey, blood; Cynomolgus monkeys, PO 10 mg/kg

| compound | display.unit | half-life |
| --- | --- | --- |
| CC1(O)[C@@H](O)[C@@H](CO)O[C@H]1n1cnc2c(=O)[nH]c(N)nc21 (stereo partly shown) | h | 10.3 |
